target: Virion infectivity factor (Human immunodeficiency virus type 1 group M subtype B (isolate BH10)) + Virion infectivity factor (Human immunodeficiency virus type 1 group M subtype B (isolate BRU/LAI)) + Virion infectivity factor (Human immunodeficiency virus type 1 group M subtype B (isolate PCV12)) + Virion infectivity factor (Human immunodeficiency virus type 1 group M subtype B (isolate HXB2)) + DNA dC->dU-editing enzyme APOBEC-3G (Homo sapiens) (UniProt P69720+P69721+P69722+P69723+Q9HC16); assay: HIV-1 Vif–A3G interaction blockers – biochemical, TR-FRET, GST-Vif 1-94, biotin-A3G peptide, dose response retest, primary screen (AID 1117319); settings: TR-FRET GST-Vif / biotin-A3G peptide binding;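 further: Vif residues 1-94 fused to GST binding biotinylated APOBEC3G peptide 110-148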
Records with an inconclusive call do not appear.
measured_property: IC50

| compound | IC50 |
| --- | --- |
| CN(C)c1nc(N)nc(CSc2nc3c(c(=O)n(C)c(=O)n3C)n2Cc2ccccc2F)n1 | 60.9 µM |
| COc1ccc(OC)c(C2C(C(=O)Nc3ccc(F)cc3)=C(C)Nc3nc(CCCO)nn32)c1 (stereo not given) | 54.6 µM |
| Cc1n[nH]c(=S)n(NC(=O)/C=C/C(=O)Nn2c(=S)[nH]nc(C)c2=O)c1=O | 2.38 µM |
| COc1ccc(-n2c(C)cc(C(=O)CSc3nn4c(=O)c(C(C)(C)C)nnc4s3)c2C)cc1 | 10.3 µM |

// next item, IC50 requested
According to the records, this compound Cn1cccc1/C=C1/C(=O)NC(=S)N(Cc2ccc(F)cc2)C1=O displays IC50 of 1.24 µM

====

target: Virion infectivity factor (Human immunodeficiency virus type 1 group M subtype B (isolate BH10)) + Virion infectivity factor (Human immunodeficiency virus type 1 group M subtype B (isolate BRU/LAI)) + Virion infectivity factor (Human immunodeficiency virus type 1 group M subtype B (isolate PCV12)) + Virion infectivity factor (Human immunodeficiency virus type 1 group M subtype B (isolate HXB2)) + DNA dC->dU-editing enzyme APOBEC-3G (Homo sapiens) (UniProt P69720+P69721+P69722+P69723+Q9HC16); assay: HIV-1 Vif–A3G interaction blockers – biochemical, TR-FRET, GST-Vif 1-94, biotin-A3G peptide, dose response retest, primary screen (AID 1117319); settings: TR-FRET GST-Vif / biotin-A3G peptide binding;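 further: Vif residues 1-94 fused to GST binding biotinylated APOBEC3G peptide 110-148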
Records with an inconclusive call do not appear.
measured_property: IC50

Example entries begin here.
| compound | test_result |
| --- | --- |
| COc1ccc(NC(=O)/C(C#N)=C\c2ccc(Br)o2)cc1 | 6.29 µM |
| O=C(Cc1csc(N2CCOCC2)n1)N/N=C/c1ccc(O)c(O)c1O | 1.3 µM |
| Cc1ccc(N2C(=O)/C(=C/c3ccc(CN(CCC#N)S(C)(=O)=O)o3)C(=O)NC2=S)cc1 | 8.32 µM |
| O=C(NC(=S)N1CCCc2ccccc21)c1ccccc1 | 28.4 µM |

# IC50 (compound: Cc1ccccc1-c1nc(CN2CCC(C(=O)N3CCN(c4ccccn4)CC3)CC2)c(C)o1 ) is 43.3 µM

Documented IC50 of O=[N+]([O-])c1cc2oc3c(c2c(C=NCc2ccncc2)c1O)CCCC3 : 4.52 µM

Just so you know, measured IC50 for O=C1/C(=C\c2ccco2)CCC/C1=C\c1ccco1 came out at 3.05 µM

Short answer for O=S(=O)(c1ccc(NC(=S)N/N=C/c2ccc(O)c(O)c2)cc1)N1CCOCC1 : IC50 was 7.53 µM

Just so you know, measured IC50 for Oc1ccc(NCc2cccc(OCc3ccccc3)c2)cc1 came out at 2.14 µM

// sample COc1cc2c3c(c1OC)C1(C=CC(=O)C=C1)CC3N(C(=O)CCC(=O)O)CC2 (stereo not given) , its IC50 was 13.3 µM
